# Tested on: M07e
# test name: cells

# smiles entry, IC50 / µM
rows = [
    ("N#CC[C@H](C1CCCC1)n1cc(-c2ncnc3[nH]ccc23)cn1", 0.045),
]

====

# System: MV4-11
# Design: species or system AML cell lines (8); Primary HTS, single concentration about 10 uM, Cell Titer Glo viability; log10 luminescence, per cent inhibition relative to cycloheximide control
# condition set: 72 h, relative to cycloheximide control, log10 luminescence; inhibitor
Reported MV4-11 %inh values are given for each entry in this list.
endpoint label: MV4-11 %inh (%)

# molecule, reported value
data = [
    ("O=C(Nc1n[nH]c2nc(-c3ccco3)ccc12)C1CC1", -0.2919),
    ("CC1(OC(=O)c2cccs2)C(=O)C=C2C=C3CCCN3C=C2C1=O (stereo not shown)", 2.091),
    ("CC1=C(C(=O)Nc2ccc3[nH]ncc3c2)C(c2ccc3ccccc3c2)CC(=O)N1 (stereo not shown)", 30.46),
    ("Cn1c(-c2ccncc2)c(-c2ccc(F)cc2)c2ncccc21", 3.37),
]
